Measured values drawn from patent US5292733A for this set.

# System: Staphylococcus aureus ATCC 10537
# method_notes: Antibacterial activity MIC, two-fold agar dilution
# Format: cell-based
# condition_details: ATCC10537; Staphylococcus aureus ATCC 10537; Muller-Hinton agar, 37° C., 20 hours; read-out: Antibacterial Activity MIC
experimental_readout: MIC

Worked set:
1. CCO/N=C(\C(=O)N[C@@H]1C(=O)N2C(C(=O)[O-])=C(CSc3cc(N)[n+](CC)c(N)n3)CS[C@H]12)c1nsc(N)n1 ... 0.5 µg/mL
2. C#CCO/N=C(\C(=O)N[C@@H]1C(=O)N2C(C(=O)[O-])=C(CSc3cc(N)[n+](CC)c(N)n3)CS[C@H]12)c1csc(N)n1 ... 0.5 µg/mL
3. CO/N=C(\C(=O)N[C@@H]1C(=O)N2C(C(=O)[O-])=C(CSc3cc(N)[n+](C)c(N)n3)CS[C@H]12)c1csc(N)n1 ... 0.5 µg/mL
4. C#CCO/N=C(\C(=O)N[C@@H]1C(=O)N2C(C(=O)[O-])=C(CSc3cc(N)[n+](C)c(N)n3)CS[C@H]12)c1csc(N)n1 ... 0.5 µg/mL
5. CCO/N=C(\C(=O)N[C@@H]1C(=O)N2C(C(=O)[O-])=C(CSc3cc(N)nc(N)[n+]3C)CS[C@H]12)c1nsc(N)n1 ... 1 µg/mL

Task: What MIC value was documented for this compound, "CO/N=C(\C(=O)N[C@@H]1C(=O)N2C(C(=O)[O-])=C(CSc3cc(N)nc(N)[n+]3C)CS[C@H]12)c1csc(N)n1" ?
Result: 1 µg/mL

====

# Test system: Shigella sonnei ATCC 11060
experimental_readout: MIC (µg/mL)
Please give a number only; it is taken to be in µg/mL.

Some solved cases for reference:
1. CC(O/N=C(\C(=O)N[C@@H]1C(=O)N2C(C(=O)[O-])=C(CSc3cc(N)[n+](C)c(N)n3)CS[C@H]12)c1csc(N)n1)C(=O)O (stereo partly shown) ... 0.25
2. C[n+]1c(N)nc(N)nc1SCC1=C(C(=O)[O-])N2C(=O)C(NC(=O)/C(=N\OC(C)(C)C(=O)O)c3csc(N)n3)[C@H]2SC1 (stereo partly shown) ... 0.063
3. CC[n+]1c(SCC2=C(C(=O)[O-])N3C(=O)[C@@H](NC(=O)/C(=N\OC(C)C(=O)O)c4csc(N)n4)[C@H]3SC2)cc(N)nc1N (stereo partly shown) ... 0.25
4. CCO/N=C(\C(=O)N[C@@H]1C(=O)N2C(C(=O)[O-])=C(CSc3cc(N)[n+](C)c(N)n3)CS[C@H]12)c1nsc(N)n1 ... 0.25

Task: Param item = "C[n+]1c(N)cc(SCC2=C(C(=O)[O-])N3C(=O)[C@@H](NC(=O)/C(=N\OCC(=O)O)c4csc(N)n4)[C@H]3SC2)nc1N" ; retrieve measured MIC.
Result: 0.031

Task: Need MIC, item "CCO/N=C(\C(=O)N[C@@H]1C(=O)N2C(C(=O)[O-])=C(CSc3cc(N)[n+](CC)c(N)n3)CS[C@H]12)c1nsc(N)n1"
Result: 0.25

Task: For the compound shown here, CO/N=C(\C(=O)N[C@@H]1C(=O)N2C(C(=O)O)=C(COC(C)=O)CS[C@H]12)c1csc(N)n1 [Cefotaxime, reference compound] , give the reported MIC.
Result: 0.063

====

Recorded MIC by entry
# System: Micrococcus luteus ATCC 9341
# method_notes: Antibacterial activity MIC, two-fold agar dilution
# Assay type: cell-based
# condition_details: ATCC9341; Micrococcus luteus ATCC 9341; Muller-Hinton agar, 37° C., 20 hours; read-out: Antibacterial Activity MIC
Quick note: give the figure in µg/mL, leave out the unit.

Here are 3 molecules together with their reported answers.
1) CC[n+]1c(N)nc(N)nc1SCC1=C(C(=O)[O-])N2C(=O)C(NC(=O)/C(=N\OC(C)(C)C(=O)O)c3csc(N)n3)[C@H]2SC1 (stereo partly drawn) [Compound I-24] ... 1
2) C#CCO/N=C(\C(=O)N[C@@H]1C(=O)N2C(C(=O)[O-])=C(CSc3cc(N)[n+](C)c(N)n3)CS[C@H]12)c1csc(N)n1 [Compound I-14] ... 0.031
3) CC(C)(O/N=C(\C(=O)NC1C(=O)N2C(C(=O)[O-])=C(CSc3nc(N)nc(N)[n+]3-c3ccccc3)CS[C@H]12)c1csc(N)n1)C(=O)O (stereo partly drawn) [Compound I-25] ... 0.5

Task: For CC(O/N=C(\C(=O)N[C@@H]1C(=O)N2C(C(=O)[O-])=C(CSc3cc(N)nc(N)[n+]3C)CS[C@H]12)c1csc(N)n1)C(=O)O (stereo partly drawn) [Compound I-3] , what is its reported MIC?
Result: 0.5

Task: Consider the molecule shown here: C[n+]1c(N)cc(SCC2=C(C(=O)[O-])N3C(=O)[C@@H](NC(=O)/C(=N\OC(C)(C)C(=O)O)c4csc(N)n4)[C@H]3SC2)nc1N [Compound I-12] What is its recorded MIC?
Result: 0.5

Task: Value lookup for MIC; key = CC[n+]1c(SCC2=C(C(=O)[O-])N3C(=O)[C@@H](NC(=O)/C(=N\OC(C)C(=O)O)c4csc(N)n4)[C@H]3SC2)cc(N)nc1N (stereo partly drawn) [Compound I-4]
Result: 0.5

====

Parameter 'readout' = MIC; parameter 'system' = Shigella sonnei ATCC 11060.
Quick reminder: number only, in µg/mL, skip the unit.

1. C#CCO/N=C(\C(=O)N[C@@H]1C(=O)N2C(C(=O)[O-])=C(CSc3cc(N)[n+](C)c(N)n3)CS[C@H]12)c1csc(N)n1 [Compound I-14] ... 0.5
2. CC(O/N=C(\C(=O)N[C@@H]1C(=O)N2C(C(=O)[O-])=C(CSc3cc(N)nc(N)[n+]3C)CS[C@H]12)c1csc(N)n1)C(=O)O (stereo partly drawn) [Compound I-3] ... 0.25
3. CC(C)(O/N=C(\C(=O)N[C@@H]1C(=O)N2C(C(=O)[O-])=C(C[n+]3ccccc3)CS[C@H]12)c1csc(N)n1)C(=O)O [Ceftazidime, reference compound] ... 0.063
4. CCO/N=C(\C(=O)N[C@@H]1C(=O)N2C(C(=O)[O-])=C(CSc3cc(N)nc(N)[n+]3C)CS[C@H]12)c1nsc(N)n1 [Compound I-5] ... 0.25
5. C[n+]1c(N)cc(SCC2=C(C(=O)[O-])N3C(=O)[C@@H](NC(=O)/C(=N\OC(C)(C)C(=O)O)c4csc(N)n4)[C@H]3SC2)nc1N [Compound I-12] ... 0.25

Alright, here's another molecule for you.
Task: Lab request: please report MIC under test system Shigella sonnei ATCC 11060 for CO/N=C(\C(=O)N[C@@H]1C(=O)N2C(C(=O)[O-])=C(CSc3cc(N)[n+](C)c(N)n3)CS[C@H]12)c1csc(N)n1 [Compound I-21]
Result: 0.13

====

# Tested on: Enterobacter cloacae ATCC 27508
# method_notes: Antibacterial activity MIC, two-fold agar dilution
# Type: cell-based
# condition_details: ATCC27508; Enterobacter cloacae ATCC 27508; Muller-Hinton agar, 37° C., 20 hours; read-out: Antibacterial Activity MIC
experimental_readout: MIC (mg/L)
Supply the numeric figure in mg/L, leaving out any unit text.

1) C[n+]1c(N)nc(N)nc1SCC1=C(C(=O)[O-])N2C(=O)C(NC(=O)/C(=N\OC(C)(C)C(=O)O)c3csc(N)n3)[C@H]2SC1 (stereo partly drawn) ... 0.031
2) CC[n+]1c(N)nc(N)nc1SCC1=C(C(=O)[O-])N2C(=O)C(NC(=O)/C(=N\OC(C)(C)C(=O)O)c3csc(N)n3)[C@H]2SC1 (stereo partly drawn) ... 0.031
3) CC(O/N=C(\C(=O)N[C@@H]1C(=O)N2C(C(=O)[O-])=C(CSc3cc(N)nc(N)[n+]3C)CS[C@H]12)c1csc(N)n1)C(=O)O (stereo partly drawn) ... 0.016
4) C#CCO/N=C(\C(=O)N[C@@H]1C(=O)N2C(C(=O)[O-])=C(CSc3cc(N)[n+](C)c(N)n3)CS[C@H]12)c1csc(N)n1 ... 0.016

Turning to the following compound.
Task: Item CC(C)(O/N=C(\C(=O)NC1C(=O)N2C(C(=O)[O-])=C(CSc3nc(N)nc(N)[n+]3-c3ccccc3)CS[C@H]12)c1csc(N)n1)C(=O)O (stereo partly drawn) with Enterobacter cloacae ATCC 27508 - MIC?
Result: 0.13

====

# Tested on: Staphylococcus aureus ATCC 10537
# method_notes: Antibacterial activity MIC, two-fold agar dilution
# Type: cell-based
# condition_details: ATCC10537; Staphylococcus aureus ATCC 10537; Muller-Hinton agar, 37° C., 20 hours; read-out: Antibacterial Activity MIC
experimental_readout: MIC

1. CCO/N=C(\C(=O)N[C@@H]1C(=O)N2C(C(=O)[O-])=C(CSc3cc(N)nc(N)[n+]3CC)CS[C@H]12)c1nsc(N)n1 ... 1 µg/mL
2. C[n+]1c(SCC2=C(C(=O)[O-])N3C(=O)[C@@H](NC(=O)/C(=N\OC(C)(C)C(=O)O)c4csc(N)n4)[C@H]3SC2)cc(N)nc1N ... 4 µg/mL

Task: What value of measured MIC is listed for "CC[n+]1c(N)cc(SCC2=C(C(=O)[O-])N3C(=O)[C@@H](NC(=O)/C(=N\OCC(=O)O)c4csc(N)n4)[C@H]3SC2)nc1N" ?
Result: 4 µg/mL
